Data origin: paper PMC12041881

System: WT M. tuberculosis H37Rv
protocolText: microbe, parasite or virus in culture
Format: cell-based
assayContext: Mycobacterium tuberculosis, H37RV
Recorded IC50, one value per entry.
// note: answer is a bare numeric in nM

>>> recordednumber("CC1(NC(=O)Nc2ccc(Cl)c(C(F)(F)F)c2)CCCCC1")
110
>>> recordednumber("O=C(Nc1ccc(Cl)c(C(F)(F)F)c1)NC1COC2(CCC2)OC1")
850

Continue with the next compound.
Q: Using the record for `O=C(Nc1ccc(Cl)c(C(F)(F)F)c1)NC1CCCCC1` , report its IC50.
Result: 1300

====

System: M. tuberculosis H37Ra
protocolText: microbe, parasite or virus in culture
Format: cell-based, Mycobacterium tuberculosis
assayContext: Mycobacterium tuberculosis, H37RA, read-out: MIC MTB H37Ra
Recorded MIC, one value per entry.

>>> result("O=C(Nc1ccc(Cl)c(C(F)(F)F)c1)NC1CCCCC1")
"1.56 to 3.13 µM"
>>> result("O=C(Nc1ccc(Cl)c(C(F)(F)F)c1)NC1CCC2(CC1)OCCO2")
"1.56 to 3.13 µM"

Q: Using the record for C#CCCC1(CCOC(=O)C2CCC(NC(=O)Nc3ccc(Cl)c(C(F)(F)F)c3)CC2)N=N1 (stereo not drawn) , report its MIC.
Result: > 50 µM
